Below, each entry is listed with its recorded Inhibition.
- Tested on: Escherichia coli
- Cond: Concentration 20 uM; ASSAY_TEST Inhibition of Bacterial Growth; detection method Absorption (OD600); MEDIA CAMHB; plate type 384well; NBS; CORNING #3640; time 18 hr
- Description: Antibacterial activity against Escherichia coli ATCC 25922 (CO-ADD:GN_001); MIC in CAMBH media using NBS plates, by OD(600)
Results with a measured potency or affinity are listed apart.

Molecule	Inhibition, %
N#Cc1ccc(-c2cnc(N)c(-c3ccc(C(N)=O)cc3)n2)cc1	7.7
O=C(Nc1cccc(-c2ccc(NCCCN3CCCC3)nc2)c1)c1ccccc1	7.66
Cc1ccc2nc(Cl)c(CNCc3cccs3)cc2c1	-1.94
O=C(NCCc1ccn(-c2ccccc2)n1)C1CCCCC1	2.39
CN1CCN(c2cc(-c3ccc(F)cc3)nc(-c3ccncc3)n2)CC1	-5.05
COc1ccc(Cn2cnc3c(-c4ccco4)nc(Cl)nc32)cc1	10.18
CCOc1ccccc1C(=O)Nc1cccc(-c2nc3ncccn3c2C)c1	10.22
O=C(NC1=NCCS1)c1sc2cc(F)ccc2c1Cl	-4.46
Clc1ccc(Cl)c(CO[C@H]2CCCC[C@@H]2n2ccnc2)c1	7.4
CC(C)n1nc(-c2cc3c(Cl)cccc3[nH]2)c2c(N)ncnc21	4.95
COc1ccc(Cl)cc1NC(=O)CN(C)C(=O)c1cnn(-c2ccccc2)n1	-2.51
Cc1cc2nc(NC(=O)C(C)(C)C)nc(Cl)c2n1Cc1ccc(Cl)cc1	0.73
Cc1[nH]c2cc(F)cc(F)c2c(=O)c1-c1ccc(Oc2ccc(OC(F)(F)F)cc2)cc1	-0.95
Cc1cc(Nc2ccncc2)n2nc(C)c(-c3ccccc3Cl)c2n1	7.54
CNC(=O)c1nn(C)c2c1C(C)(C)Cc1cnc(Nc3ccc(N4CCN(C)CC4)cc3)nc1-2	10.4
CS(=O)(=O)Cc1nc2ccccc2oc1=O	5.17
COc1cc(C(F)(F)F)nc2ccc(C)c(N)c12	5.11
COc1ccc(N(CCc2cccc(C)n2)C(C)=O)cc1	6.06
Clc1ccc(-n2cc(COc3ccnc4ccccc34)nn2)cc1	8.78
CNC1C(OC2C(OC3C(O)C(O)C(NC(=N)N)C(O)C3NC(=N)N)OC(C)C2(O)C=O)OC(CO)C(O)C1O.CNC1C(OC2C(OC3C(O)C(O)C(NC(=N)N)C(O)C3NC(=N)N)OC(C)C2(O)C=O)OC(CO)C(O)C1O.O=S(=O)(O)O.O=S(=O)(O)O.O=S(=O)(O)O (stereo unspecified)	8.5
CNC(=O)C1Cc2c([nH]c3cc(Cl)ccc23)C2(CCN(CCc3ccccc3)CC2)N1 (stereo unspecified)	9.53

// data source = ChEMBL document CHEMBL4513149
